- Tested on: SR
- ASSAY_NAME: NCI tumour cell line growth inhibition, 48 h
Active and inactive are the calls of the source. No stated cut-off is given here; in the data, active = GI50 up to about 1.1 µM and inactive = higher. Where a SMILES comes first, the peptide text is derived from it. [ ]: non-standard residue; d: D form. The star is where a group is joined. Phe(4-NO2) = N[CH](Cc1ccc([N+](=O)[O-])cc1)C(=O)O; Boc = CC(C)(C)OC(=O)*; OtBu = CC(C)(C)O*
MEASURED_QUANTITY: GI50

# annotated cases, reported GI50 shown
MOLECULE | ASSAYED_SYSTEM | ENDPOINT_RESULT
C[n+]1cc2cc(O)c(O)cc2c2ccc3cc(O)c(O)cc3c21.c1ccncc1 | SR | 2.09 µM (inactive)
CCCCOc1ccc2c(c1)CC[C@@H]1[C@@H]2CC[C@]2(C)C(=O)N(CCCC)C(=O)C[C@@H]12 | SR | > 100 µM (inactive)

Please indicate GI50 recorded for `COc1ccc(C2=Nn3c(nnc3-c3ccccc3)S/C2=C\c2ccc(-c3ccc([N+](=O)[O-])cc3)o2)cc1`
9.62 µM (inactive)

Please indicate GI50 recorded for `NC1=C(N2CCCCC2)C(=O)NC2=N/C(=C\c3ccccc3)C(=O)N21`
43.7 µM (inactive)

Please indicate GI50 recorded for `CCCCCC(=O)Nc1[nH]cnc1C(N)=O`
> 100 µM (inactive)

Please indicate GI50 recorded for CC1(C)C2CCC3=C(CCC4(C)C5C[C@](C)(C(=O)O)CC[C@]5(C)CC[C@]34C)[C@@]2(C)CC[C@@H]1O (stereo not given in full)
30.8 µM (inactive)

Please indicate GI50 recorded for CC(=O)NC(CCC(=O)OC(C)(C)C)C(=O)NC(CCC(=O)OC(C)(C)C)C(=O)NC(Cc1ccc([N+](=O)[O-])cc1)C(=O)NC(CCCCNC(=O)OC(C)(C)C)C(=O)NC(CCCCNC(=O)OC(C)(C)C)C(=O)NCC(=O)O (stereo not given) (Ac-E(OtBu)E(OtBu)[Phe(4-NO2)]K(Boc)K(Boc)G-OH; configuration not given here)
> 100 µM (inactive)

Please indicate GI50 recorded for `Cc1ccnc(NC(=S)Nc2cccc(Cl)c2)c1`
> 100 µM (inactive)

Please indicate GI50 recorded for CC(=O)OCC(OC(C)=O)C(OC(C)=O)C(OC(C)=O)C(C=NN(C(C)=O)S(=O)(=O)c1ccc(/C=C2\NC(=O)N(C)C2=O)cc1)OC(C)=O (stereo not given)
23.4 µM (inactive)

Please indicate GI50 recorded for `N/C(=N\O)N/N=C/c1cccc(F)c1`
21.9 µM (inactive)

Please indicate GI50 recorded for `CC(=O)Nc1ccc(-c2nc3ccccc3s2)cc1Br`
> 100 µM (inactive)

Please indicate GI50 recorded for COC1C=CC(C(=O)[N+]2=Cc3[nH]c4ccccc4c3CC2)O1 (stereo not given)
30.5 µM (inactive)

Please indicate GI50 recorded for `O=C1C(=O)N(C2CCCCC2)C(=S)N1C1CCCCC1`
> 100 µM (inactive)

Please indicate GI50 recorded for `CC(=O)c1ccccc1NCC(=O)Nn1cnc2ccc(S(=O)(=O)Nc3ccccc3C(C)=O)cc2c1=O`
> 100 µM (inactive)

Please indicate GI50 recorded for O=C(O)C(Cc1c[nH]c2ccccc12)C(=O)NO (stereo not given)
> 100 µM (inactive)

Please indicate GI50 recorded for `Nc1nc(Nc2ccccc2)sc1C(=O)c1ccco1`
5.97 µM (inactive)

Please indicate GI50 recorded for `O=C1OC(=O)c2c1nc1ccccc1c2-c1ccccc1`
> 100 µM (inactive)

Please indicate GI50 recorded for COCC1OCCN1C (stereo not given)
> 100 µM (inactive)

Please indicate GI50 recorded for `C=CCOC(=O)Cn1cnc2c(N)ncnc21`
> 100 µM (inactive)

Please indicate GI50 recorded for `CCC1(CC)C(=O)NN(C(=O)c2ccc(Cl)cc2)C1=O`
> 100 µM (inactive)

----------
- Tested on: COLO 205
- ASSAY_NAME: NCI tumour cell line growth inhibition, 48 h
Calls of active or inactive are those of the source. Cut-off read from the data, not from the text of the source: active = GI50 up to about 1.1 µM and inactive = higher.
Please reply with one of these outcomes: active, inactive

Use these answered entries as a reference point.
COMPOUND | CLASS
C[C@H](CCC1=NCCN1)[C@H]1CC[C@H]2[C@@H]3CC[C@@H]4C[C@H](O)CC[C@]4(C)[C@H]3C[C@H](O)[C@]12C | inactive
N#Cc1cnn2cc[nH]c12 | inactive
NC(=S)NNCC(=O)CC(O)(C(F)(F)F)C(F)(F)Cl (stereo not drawn) | inactive
O=C1C=Cc2c(-c3ccccc3)oc3cccc1c23 | inactive
CCCCCCCCNC(=S)N/C=C1\C(=O)Oc2ccccc2C1=O | inactive
CCCn1c(SCC)c2ccccc2c1-c1nc(F)nc(F)n1 | inactive
CCCCN(CCCC)C1(c2cc3ccccc3s2)CCCCC1.[O-][Cl+3]([O-])([O-])O | inactive
CCOC(=O)C1C(=O)C(C(=O)OCC)C(c2ccccc2)N(C)C1c1ccccc1 (stereo not drawn) | inactive

Recorded test outcome, item O=C1CC2CC3OC3[C@H]3c4cc5c(cc4C(=O)N1C23)OCO5 (stereo partly drawn)
inactive

Recorded test outcome, item CC(C)c1cccc(C(C)C)c1NC(=O)C(=O)C(C(=O)c1ccc2ccccc2c1)C1OC(=O)c2ccccc21 (stereo not drawn)
inactive

Recorded test outcome, item `CCOC(=O)c1nc2ccc(C(F)(F)F)cc2nc1Nc1cc(OC)c(OC)c(OC)c1`
inactive

Recorded test outcome, item CCCCCCC(C)CCCCCCCCCCC(=O)O (stereo not drawn)
inactive

Recorded test outcome, item `CN(/N=C/c1ccc(Cl)cc1)C1=NCCCCN1`
inactive

Recorded test outcome, item CC1(C)C2CCC3=C(CCC4(C)C5C[C@](C)(C(=O)O)CC[C@]5(C)CC[C@]34C)[C@@]2(C)CC[C@@H]1O (stereo partly drawn)
inactive

Recorded test outcome, item COc1cc(C2OC[C@@H]3C(=O)OC[C@H]23)cc(O)c1OC (stereo partly drawn)
inactive

Recorded test outcome, item COC1CCC2C(=O)CCCC2O1 (stereo not drawn)
inactive

Recorded test outcome, item `CCOC(=O)/C(C#N)=C/c1ccc(CO)o1`
inactive

Recorded test outcome, item `CCOC(=O)c1cc2cc(CSc3ccccc3)ccc2oc1=O`
inactive

Recorded test outcome, item `CC(C)c1cccc(=O)c(O)c1`
inactive

Recorded test outcome, item `COC(=O)c1cccc2c3ccccc3c3ccccc3c12`
inactive

Recorded test outcome, item `COC(=O)[C@H](NC(=O)OC(C)(C)C)[C@H]1COC(C)(C)O1`
inactive

----------
- Tested on: COLO 205
- ASSAY_NAME: NCI tumour cell line growth inhibition, 48 h
Active and inactive are the calls of the source. Cut-off read from the data, not from the text of the source: active = GI50 up to about 1.1 µM and inactive = higher.
MEASURED_QUANTITY: GI50

# annotated cases, reported GI50 shown
COMPOUND | GI50
CC(=O)OC1C/C(C)=C/CCC(C)/C=C/C2(C)CCC(C(C)(C)O)C12 (configuration not stated) | 39.8 µM (inactive)
CC(C)=CCC[C@@H](C)C1=C(O)C(=O)C(C)=C(N)C1=O | 27.9 µM (inactive)
O=C1C2C3C=C4c5ccccc5N(c5ccccc5)C4(C2C(=O)N1c1ccccc1)C1C(=O)N(c2ccccc2)C(=O)C31 (configuration not stated) | 35.6 µM (inactive)

Please indicate GI50 recorded for `CCCCCCCCOC(=O)c1cc([N+](=O)[O-])c(Sc2[nH]cnc3ncnc2-3)c([N+](=O)[O-])c1`
1.6 µM (inactive)

Please indicate GI50 recorded for `O=C(Oc1cccnc1)c1cc2cc(CCl)ccc2oc1=O`
27.2 µM (inactive)

Please indicate GI50 recorded for `CCc1nc(N)c2nc(-c3cccs3)oc2n1`
> 100 µM (inactive)

Please indicate GI50 recorded for `O=C(CN1CCN(Cc2ccccc2)CC1)c1ccc2[nH]c(=O)oc2c1`
> 100 µM (inactive)

----------
- Tested on: CCRF-CEM
- ASSAY_NAME: NCI tumour cell line growth inhibition, 48 h
Activity calls are given as the source filed them. No stated cut-off is given here; in the data, active = GI50 up to about 1.1 µM and inactive = higher.
Please reply with one of these outcomes: active, inactive

COMPOUND | ASSAYED_SYSTEM | CLASS
O=C(O)C1OC1(c1cccc(Cl)c1)c1ccccc1Cl (stereo not drawn) | CCRF-CEM | inactive
O=c1c2cc([N+](=O)[O-])ccc2[nH]n1Cc1ccccn1 | CCRF-CEM | inactive
Nc1nc2c3nc(Nc4ccccc4)sc3nc(=O)n2c2sc(Nc3ccccc3)nc12 | CCRF-CEM | inactive

Recorded test outcome, item `O=C1NCN(c2ccccc2)C12CCN(CCCN1CCN(CCOC(c3ccccc3)c3ccccc3)CC1)CC2`
active

Recorded test outcome, item `CC(=O)c1cccc(Nc2nc3ccccc3c3occc23)c1`
inactive

Recorded test outcome, item CCCCCc1cc2cc3c(c(O)c2c(=O)[nH]1)C1(CCC3)C(=O)c2c(O)c3c(c(O)c2C1=O)C(=O)C(OC)=CC3=O (stereo not drawn)
active

Recorded test outcome, item `C[C@H](CCC(=O)NCC(=O)O)[C@H]1CC[C@H]2[C@@H]3[C@H](O)C[C@@H]4C[C@H](O)CC[C@]4(C)[C@H]3CC[C@]12C`
inactive

Recorded test outcome, item COC1C(O)=C2C(=O)OC(C)(O)/C=C/C=C\C=C/C=C/C(c3ccccc3)NC(=O)/C=C/C=C/C=C/C=C/C2(C)C1O (stereo not drawn)
active
